Recorded OD450 nm by entry
biological target: T1, HSA (purchased from Sigma) (human, UniProt P02768 25-609); test: ELISA, VHH at 1 µg/mL on coated HSA, anti-his detection
T1 construct: Control coating for the fusion partner of PDL1-HSA; also called human serum albumin
T1 sequence (P02768 25-609 limits assumed): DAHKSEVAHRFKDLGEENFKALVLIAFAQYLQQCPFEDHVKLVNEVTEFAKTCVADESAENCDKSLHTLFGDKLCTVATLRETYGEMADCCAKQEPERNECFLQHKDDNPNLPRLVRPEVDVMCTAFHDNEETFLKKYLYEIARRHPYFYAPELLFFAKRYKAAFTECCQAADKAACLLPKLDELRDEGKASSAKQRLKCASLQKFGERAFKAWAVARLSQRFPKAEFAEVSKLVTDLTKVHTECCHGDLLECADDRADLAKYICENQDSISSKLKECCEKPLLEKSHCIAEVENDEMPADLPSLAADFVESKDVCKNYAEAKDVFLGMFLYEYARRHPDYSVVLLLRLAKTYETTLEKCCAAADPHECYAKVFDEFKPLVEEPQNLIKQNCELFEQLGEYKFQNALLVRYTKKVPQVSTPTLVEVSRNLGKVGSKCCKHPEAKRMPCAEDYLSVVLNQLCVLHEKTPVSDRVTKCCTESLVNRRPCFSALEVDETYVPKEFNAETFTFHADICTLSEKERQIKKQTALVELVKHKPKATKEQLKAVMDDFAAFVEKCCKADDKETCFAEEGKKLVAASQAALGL

binder	OD450 nm (OD450 nm)
anti-PDL1 single-domain antibody 1D1, histidine-tagged (VHH, not shown: C-terminal histidine tag) VHH: QLQLVESGGGLVQAGGSLRLSCAASGGTFITYAMGWFRQAPGKDREFVAGISWSGSSTYYTDSVKGRFTISRDNAKNTVYLQMNSLKPGDTAVYYCAAKISGATREHLMTSYDYWGQGTQVTVSS	0.074
anti-PDL1 single-domain antibody 1D7, histidine-tagged (VHH, not shown: C-terminal histidine tag) VHH: QVQLVESGGGLVQPGGSLRLSCAASGRAFLTYAMGWFRQAPGKEREFVAAISWSGSSTYYADSVKGRFTISRDNAKNMVYLQMNSLKPEDTAVYYCAAKVSGATRDHLMTTYDYWGQGTQVTVSS	0.076
anti-PDL1 single-domain antibody 1G10, histidine-tagged (VHH, not shown: C-terminal histidine tag) VHH: QVQLVESGGGLVQAGGSLRLSCAASGRPFITYAMGWFRQAPGKEREFVAAINWSGSITAYADSVKGRFTISRDNAKNAAYLQMNSLKPDDTAVYYCASKRTAVAPRALNDYDFWGQGTQVTVSS	0.073
anti-PDL1 single-domain antibody 1A7, histidine-tagged (VHH, not shown: C-terminal histidine tag) VHH: QLQLVESGGDLVQPGGSLRLSCAASGSIFSANLIDWYRQPPGKQRELVAVISSRGITSYADSVKGRFTISRDNAKNTVYLQMNSLKPEDTAVYYCHLFHTDGLGYWGQGTQVTVSS	0.082
anti-PDL1 single-domain antibody 5A8, histidine-tagged (VHH, not shown: C-terminal histidine tag) VHH: QLQLVESGGGLVQPGGSLRLSCAASGGTFITYAMGWFRQAPGKDREFVAGISWSGSSTYYTDSVKGRFTISRDNAQNTVYLQMNSRKPGDTAVYYCAAKISGATREHLRTSYDYGGQGTQVTVSS	0.064
anti-PDL1 single-domain antibody 6F1, histidine-tagged (VHH, not shown: C-terminal histidine tag) VHH: QLQLVESGGGLVQPGGSLRLSCAASGRTFSTHSMHWFRQAPEKERVFVAAINWNGDSTYYADSVKGRFTISRDNSKNTVDLQMNNLKPEDTAVYVCAARPGAPSTIVAMLDYWGQGTQVTVSS	0.081

Reference source for all entries: patent US20220372150A1
